# System: polyclonal human IgG
# Test: Adsorption isotherm of peptoid affinity resins against polyclonal human IgG
# Assay type: binding
# Experimental Context: Table 3; peptoid ligand conjugated to chromatographic resin, IgG in PBS, hyperbola fit of isotherm; Kd given in molar; read-out: Kd x 10^−6
*1 amine or outer side, *2 acyl side, *3 side chain or, on linkers, in order; H or OH if unused. Where a SMILES comes first, the peptide text is derived from it. [ ]: non-standard residue; d: D form. Gly(N(CH2)2(3-indolyl)) = O=C(O)CNCCc1c[nH]c2ccccc12; N(2-mercaptoethyl)Gly = O=C(CN(CCS[*:3])[*:1])[*:2]; Gly(N-(CH2)3-guanidino) = N=C(N)NCCCNCC(=O)O; NGly(CH2(3-pyridyl)) = O=C(O)CNCc1cccnc1; N(CH2CH2COOH)Gly = O=C(O)CCNCC(=O)O; Gly(N(CH2)3NH2) = NCCCNCC(=O)O; Cysteamide = C(CS[*:3])N[*:1]; X1 = CSCCN(CC(=O)[*:2])[*:1]; Nphe = O=C(O)CNCc1ccccc1; NPrGly = CCCNCC(=O)O; Sar = CNCC(=O)O
# note: exactly 6 µM is not below, so it is not fulfilled; use fulfilled for Kd strictly under it

Some entries whose results are on file:
[
  {
    "Compound": "CCCN(CC(=O)N(C)CC(=O)N(CCc1c[nH]c2ccccc12)CC(=O)N(CCC)CC(=O)N(CCc1c[nH]c2ccccc12)CC(=O)NCCS)C(=O)CN(CCCNC(=N)N)C(=O)CNCCc1c[nH]c2ccccc12 [Ligand 12-76-3] (H-[Gly(N(CH2)2(3-indolyl))][Gly(N-(CH2)3-guanidino)][NPrGly][Sar][Gly(N(CH2)2(3-indolyl))][NPrGly][Gly(N(CH2)2(3-indolyl))]-Cysteamide)",
    "Group Label": "fulfilled"
  },
  {
    "Compound": "CCCN(CC(=O)N(CCCN)CC(=O)N(CC(=O)N(CCC(=O)O)CC(=O)N(C)CC(=O)NCCS)Cc1cccnc1)C(=O)CN(CCC(=O)O)C(=O)CNCc1cccnc1 [Ligand 16-75-1] (H-[NGly(CH2(3-pyridyl))][N(CH2CH2COOH)Gly][NPrGly][Gly(N(CH2)3NH2)][NGly(CH2(3-pyridyl))][N(CH2CH2COOH)Gly][Sar]-Cysteamide)",
    "Group Label": "not fulfilled"
  },
  {
    "Compound": "CSCCN(CC(=O)N(CCCN)CC(=O)N(CC(=O)N(CCC(=O)O)CC(=O)N(C)CC(=O)NCCS)Cc1cccnc1)C(=O)CN(Cc1ccccc1)C(=O)CNCc1cccnc1 [Ligand 16-64-4] (H-[NGly(CH2(3-pyridyl))][Nphe][X1][Gly(N(CH2)3NH2)][NGly(CH2(3-pyridyl))][N(CH2CH2COOH)Gly][Sar]-Cysteamide)",
    "Group Label": "not fulfilled"
  },
  {
    "Compound": "CCCN(CC(=O)N(CCc1c[nH]c2ccccc12)CC(=O)NCCS)C(=O)CN(CCc1c[nH]c2ccccc12)C(=O)CN(C)C(=O)CN(CCCNC(=N)N)C(=O)CN(CCc1c[nH]c2ccccc12)C(=O)CNCCC(=O)O [Ligand 18-28-7] (H-[N(CH2CH2COOH)Gly][Gly(N(CH2)2(3-indolyl))][Gly(N-(CH2)3-guanidino)][Sar][Gly(N(CH2)2(3-indolyl))][NPrGly][Gly(N(CH2)2(3-indolyl))]-Cysteamide)",
    "Group Label": "fulfilled"
  }
]

# check: Kd < 6 µM for CCCN(CC(=O)N(CCc1c[nH]c2ccccc12)CC(=O)NCCS)C(=O)CN(CCc1c[nH]c2ccccc12)C(=O)CN(C)C(=O)CN(Cc1cccnc1)C(=O)CN(CCSC)C(=O)CNCc1cccnc1 [Ligand 16-64-2] (H-[NGly(CH2(3-pyridyl))][N(2-mercaptoethyl)Gly](Me)[NGly(CH2(3-pyridyl))][Sar][Gly(N(CH2)2(3-indolyl))][NPrGly][Gly(N(CH2)2(3-indolyl))]-Cysteamide) fulfilled
